Target: human α-synuclein (Homo sapiens)
Construct: the full-length gene for untagged human α-synuclein was inserted; made in house; host or cells: E. coli BL21(DE3), plasmid derived from pT7 or pET11a
Test: Cell-free Thioflavin T assay of α-synuclein aggregation (αSyn ThT Assay)
Type: biochemical
Details: mean % inhibition of αSyn aggregation relative to DMSO control; αSyn 50 μM; compounds at 100 μM; read-out: αSyn ThT Assay % Inhibition
Entries and their measured inhibition at 100 µM follow.
Express your answer in %, writing the number without its unit.

Example results:
compound	measurement
CN1CC(C(=O)O)n2c(c(-c3cccc(C(F)(F)F)c3)c(Cc3ccc(N)c4ccccc34)cc2=O)S1(=O)=O (stereo not shown)	61
O=C(O)C1CS(=O)(=O)c2c(-c3cccc(C(F)(F)F)c3)c(Cc3cccc4ccccc34)cc(=O)n21 (racemic)	13
O=C(O)C1CN(C[C@H](O)CO)S(=O)(=O)c2c(-c3cccc(C(F)(F)F)c3)c(Cc3cccc4ccccc34)cc(=O)n21 (stereo partly shown) [Compound 065a]	32
CNC(=O)CCCCN1CC(C(=O)O)n2c(c(-c3cccc(C(F)(F)F)c3)c(Cc3cccc4ccccc34)cc2=O)S1(=O)=O (stereo not shown)	42
Cn1c(=O)c2c(ncn2CCCCCCCN2CC(C(=O)O)n3c(c(-c4cccc(C(F)(F)F)c4)c(Cc4cccc5ccccc45)cc3=O)S2(=O)=O)n(C)c1=O (stereo not shown)	16

Quick check: inhibition at 100 µM of CNC(=O)CCCN1CC(C(=O)O)n2c(c(-c3cccc(C(F)(F)F)c3)c(Cc3cccc4ccccc34)cc2=O)S1(=O)=O (stereo not shown) ?
36

Moving on to the next compound: O=C(O)C1CN(CCCO)S(=O)(=O)c2c(-c3cccc(C(F)(F)F)c3)c(Cc3cccc4ccccc34)c(NC3CCCC3)c(=O)n21 (stereo not shown)
40

---

Entries and their measured remaining activity at 100 µM follow.
Target: E. coli CsgA (Escherichia coli, UniProt P28307)
Construct: made in house; host or cells: E. coli NEB 3016 slyD::kan, pET11d
Sequence (P28307 23-151): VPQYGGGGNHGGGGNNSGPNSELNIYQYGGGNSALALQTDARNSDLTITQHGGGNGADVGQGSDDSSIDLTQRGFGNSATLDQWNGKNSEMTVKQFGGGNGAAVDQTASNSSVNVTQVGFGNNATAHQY
Test: In vitro ThioflavinT assay of CsgA aggregation (CsgA ThT Assay)
Format: biochemical
Conditions: read-out: CsgA ThT Assay (10 μM CsgA) % Control AUC at 1005 minutes, 100 μM, mean AUC as % of DMSO control; CsgA 10 μM, black plates; compound 100 μM; 1005 minutes
Express your answer in %, writing the number without its unit.

Example results:
compound	readout.unit	remaining activity at 100 µM
O=C(O)C1CN(CCO)S(=O)(=O)c2c(-c3cccc(C(F)(F)F)c3)c(Cc3cccc4ccccc34)cc(=O)n21 (centres unmarked) [Compound 084]	%	19
CCc1c(Cc2cccc3ccccc23)c(-c2cccc(C(F)(F)F)c2)c2n(c1=O)C(C(=O)O)CN(C1CCCCC1)S2(=O)=O (centres unmarked) [Compound 116]	%	38
CC1(C(=O)O)CNS(=O)(=O)c2c(-c3cccc(C(F)(F)F)c3)c(Cc3cccc4ccccc34)cc(=O)n21 (centres unmarked) [Compound 042]	%	18
CC(=O)Nc1ccc(Cc2cc(=O)n3c(c2-c2cccc(C(F)(F)F)c2)S(=O)(=O)N(C)CC3C(=O)O)c2ccccc12 (centres unmarked) [Compound 048]	%	61

Quick check: remaining activity at 100 µM of CN1CC(C(=O)O)n2c(c(-c3cccc(C(F)(F)F)c3)c(Cc3cccc4ccccc34)c(NC3CCCC3)c2=O)S1(=O)=O (centres unmarked) [Compound 070] ?
29

---

Target: E. coli CsgA (Escherichia coli)
Construct: made in house; host or cells: E. coli NEB 3016 slyD::kan, pET11d
Test: In vitro ThioflavinT assay of CsgA aggregation (CsgA ThT Assay)
Format: biochemical
Conditions: read-out: CsgA ThT Assay (2 μM CsgA) % Control Bmax 100 μM, activity range, class symbol; CsgA 2 μM, white plates; compound 100 μM
experimental.endpoint: remaining activity at 100 µM

compound	experimental.endpoint	measurement
CCCN1CC(C(=O)O)n2c(c(-c3cccc(C(F)(F)F)c3)c(Cc3cccc4ccccc34)c(C3CC3)c2=O)S1(=O)=O (stereo not shown)	remaining activity at 100 µM	> 60%

Quick check: remaining activity at 100 µM of O=C(O)C1CNS(=O)(=O)c2c(-c3cccc(C(F)(F)F)c3)c(C(F)(F)c3cccc4ccccc34)cc(=O)n21 (stereo not shown) ?
31 to 60%

Moving on to the next compound: O=C(O)c1c(Cc2cccc3ccccc23)c(-c2cccc(C(F)(F)F)c2)c2n(c1=O)C(C(=O)O)CN2Cc1ccccc1 (stereo not shown)
> 60%

Moving on to the next compound: O=C(O)C1CN(Cc2ccccc2)c2c(-c3cccc(C(F)(F)F)c3)c(Cc3cccc4cccnc34)c(Cl)c(=O)n21 (stereo not shown)
31 to 60%

Moving on to the next compound: O=C(O)C1CN(Cc2ccccc2)c2c(-c3cccc(C(F)(F)F)c3)c(Cc3cccc4cnccc34)c(Cl)c(=O)n21 (stereo not shown)
31 to 60%

Moving on to the next compound: CN1CC(C(=O)O)n2c1c(-c1cccc(C(F)(F)F)c1)c(C(F)(F)c1cccc3ccccc13)cc2=O (stereo not shown)
> 60%

Moving on to the next compound: O=C(O)C1CN(CC2CCCC2)S(=O)(=O)c2c(-c3cccc(C(F)(F)F)c3)c(Cc3cccc4ccccc34)c(NC3CCCC3)c(=O)n21 (stereo not shown)
> 60%

---

Biological target: E. coli CsgA (Escherichia coli, UniProt P28307)
Construct: made in house; host or cells: E. coli NEB 3016 slyD::kan, pET11d
Assay: In vitro ThioflavinT assay of CsgA aggregation (CsgA ThT Assay)
Type: biochemical
Conditions: read-out: CsgA ThT Assay (2 μM CsgA) % Control Bmax 100 μM, mean Bmax as percentage of DMSO control; CsgA 2 μM, white plates; compound 100 μM
experimental.endpoint: remaining activity at 100 µM (%)
Express your answer in %, writing the number without its unit.

Example results:
compound	experimental.endpoint	measurement
O=C(O)C1CN(Cc2ccccc2)c2c(-c3cccc(C(F)(F)F)c3)c(Cc3cncc4ccccc34)c(Cl)c(=O)n21 (stereo not drawn)	remaining activity at 100 µM	61
O=C(O)C1CN(C2CCCC2)S(=O)(=O)c2c(-c3cccc(C(F)(F)F)c3)c(Cc3cccc4ccccc34)c(NC3CCCC3)c(=O)n21 (stereo not drawn)	remaining activity at 100 µM	199

Please look at the following compound next.
Quick check: remaining activity at 100 µM of O=C(O)C1CN(CC2CCOCC2)c2c(-c3cccc(C(F)(F)F)c3)c(Cc3cccc4ccccc34)c(Cl)c(=O)n21 (stereo not drawn) ?
61

---

Biological target: E. coli CsgA (Escherichia coli, UniProt P28307)
Construct: made in house; host or cells: E. coli NEB 3016 slyD::kan, pET11d
Experiment: In vitro ThioflavinT assay of CsgA aggregation (CsgA ThT Assay)
Assay type: biochemical
Details: read-out: CsgA ThT Assay (10 μM CsgA) % Control AUC at 1005 minutes, 100 μM (activity range), CsgA 10 μM, black plates; compound 100 μM; 1005 minutes; class symbol
Entries and their measured remaining activity at 100 µM follow.

Quick check: remaining activity at 100 µM of O=C(O)C1C[S+]([O-])c2c(-c3cccc(C(F)(F)F)c3)c(Cc3cccc4ccccc34)cc(=O)n21 (racemic) [Compound 027b] ?
> 60%

Moving on to the next compound: O=C(O)C1n2c(c(-c3cccc(C(F)(F)F)c3)c(Cc3cccc4ccccc34)nc2=O)SC12CCCC2 (centres unmarked) [Compound 053]
11 to 31%

Moving on to the next compound: O=C(O)C1CSc2c(-c3cccc(C(F)(F)F)c3)c(C(F)(F)c3cccc4ccccc34)cc(=O)n21 (centres unmarked) [Compound 073]
> 60%

Moving on to the next compound: CCCN1CC(C(=O)O)n2c(c(-c3cccc(C(F)(F)F)c3)c(Cc3cccc4ccccc34)c(C(C)C)c2=O)S1(=O)=O (centres unmarked) [Compound 125]
31 to 60%

Moving on to the next compound: CCCN1CC(C(=O)O)n2c(c(-c3cccc(C(F)(F)F)c3)c(Cc3cccc4ccccc34)cc2=O)S1(=O)=O (racemic) [Compound 016]
31 to 60%

---

Target: E. coli CsgA (Escherichia coli)
Construct: made in house; host or cells: E. coli NEB 3016 slyD::kan, pET11d
Experiment: In vitro ThioflavinT assay of CsgA aggregation (CsgA ThT Assay)
Assay type: biochemical
Conditions: read-out: CsgA ThT Assay (10 μM CsgA) % Control AUC at 1005 minutes, 100 μM (activity range), CsgA 10 μM, black plates; compound 100 μM; 1005 minutes; class symbol
experimental.endpoint: remaining activity at 100 µM

Example results:
compound	remaining activity at 100 µM
O=C(O)C1CN(C(CO)CO)S(=O)(=O)c2c(-c3cccc(C(F)(F)F)c3)c(Cc3cccc4ccccc34)cc(=O)n21 (stereo not drawn) [Compound 106]	31 to 60%
O=C(c1nc(=O)n2c(c1-c1cccc(C(F)(F)F)c1)SCC2C(=O)O)c1cccc2ccccc12 (stereo not drawn) [Compound 055]	11 to 31%
O=C(O)C1CSc2c(-c3cccc(C(F)(F)F)c3)c(C(F)(F)c3cccc4ccccc34)nc(=O)n21 (stereo not drawn) [Compound 063]	11 to 31%
O=C(O)C1CSc2c(-c3cccc(C(F)(F)F)c3)c(Cc3cccc4ccccc34)nc(=O)n21 (stereo not drawn) [Compound 022]	11 to 31%

Quick check: remaining activity at 100 µM of O=C(O)C1CNc2c(-c3cccc(C(F)(F)F)c3)c(Cc3cccc4ccccc34)cc(=O)n21 (stereo not drawn) [Compound 080] ?
> 60%

Moving on to the next compound: O=C(O)C1COc2c(-c3cccc(C(F)(F)F)c3)c(Cc3cccc4ccccc34)cc(=O)n21 (stereo not drawn) [Compound 064]
11 to 31%

Moving on to the next compound: O=C(O)[C@@H]1CS(=O)(=O)c2c(-c3cccc(C(F)(F)F)c3)c(Cc3cccc4ccccc34)cc(=O)n21 (single isomer, unassigned) [Compound 010a]
31 to 60%

Moving on to the next compound: CCCN1CC(C(=O)O)n2c(c(-c3cccc(C(F)(F)F)c3)c(Cc3cccc4ccccc34)c(Br)c2=O)S1(=O)=O (stereo not drawn) [Compound 107]
31 to 60%

Moving on to the next compound: CCN1CC(C(=O)O)n2c(c(-c3cccc(C(F)(F)F)c3)c(Cc3cccc4ccccc34)cc2=O)S1(=O)=O (racemic) [Compound 015]
11 to 31%

Origin of the recorded values: patent US20230131899A1
